// data source = the kinase profiling compilation of Christmann-Franck et al. (2016)

Items are presented alongside their recorded kinase still bound, per cent of control.
Molecular target: RPS6KA4 KD1 (human)
Experiment: KINOMEscan competition binding
Conditions: compound 10.0 µM
# unit: % | format: bare number

CC1=C(C(=O)Nc2cc3cn[nH]c3cc2F)C(c2ccc(C(F)(F)F)cc2)CC(=O)N1 (stereo not drawn) : 98
CCOc1cc(N2CCC(O)CC2)ccc1Nc1ncc2c(n1)N(C)c1ccccc1C(=O)N2C : 100
O=c1[nH]c2ccccc2n1C1CCN(Cc2ccc(-c3nc4cc5[nH]cnc5cc4nc3-c3ccccc3)cc2)CC1 : 100
COc1cc(N2CCC(C(N)=O)CC2)ccc1Nc1nc(N)c(Cl)c(Nc2ccccc2S(=O)(=O)C(C)C)n1 : 100

Query: Missing value: kinase still bound, per cent of control, RPS6KA4 KD1 (human), entry Cc1cn(-c2cc(C(=O)Nc3ccc(C)c(NC(=O)c4ccno4)c3)cc(C(F)(F)F)c2)cn1 . Fill in?
Result: 100

Query: Missing value: kinase still bound, per cent of control, RPS6KA4 KD1 (human), entry N#Cc1cc(-c2ccnc(Nc3ccc(-n4cnc(-c5cccnc5)n4)cc3)n2)cc(N2CCOCC2)c1 . Fill in?
Result: 100

Query: Missing value: kinase still bound, per cent of control, RPS6KA4 KD1 (human), entry COc1cc2ncnc(Nc3cccc(Cl)c3)c2cc1OC . Fill in?
Result: 100

Query: Missing value: kinase still bound, per cent of control, RPS6KA4 KD1 (human), entry CCN(CCO)CCCOc1ccc2c(Nc3cc(CC(=O)Nc4cccc(F)c4)[nH]n3)ncnc2c1 . Fill in?
Result: 73

Query: Missing value: kinase still bound, per cent of control, RPS6KA4 KD1 (human), entry CCN1CCN(Cc2ccc(NC(=O)c3ccc(C)c(/C=C/c4cnc5[nH]ccc5c4OC)c3)cc2C(F)(F)F)CC1 . Fill in?
Result: 50

###

Target: MINK1 (human) (UniProt Q8N4C8)
Sequence (Q8N4C8 whole entry, looked up): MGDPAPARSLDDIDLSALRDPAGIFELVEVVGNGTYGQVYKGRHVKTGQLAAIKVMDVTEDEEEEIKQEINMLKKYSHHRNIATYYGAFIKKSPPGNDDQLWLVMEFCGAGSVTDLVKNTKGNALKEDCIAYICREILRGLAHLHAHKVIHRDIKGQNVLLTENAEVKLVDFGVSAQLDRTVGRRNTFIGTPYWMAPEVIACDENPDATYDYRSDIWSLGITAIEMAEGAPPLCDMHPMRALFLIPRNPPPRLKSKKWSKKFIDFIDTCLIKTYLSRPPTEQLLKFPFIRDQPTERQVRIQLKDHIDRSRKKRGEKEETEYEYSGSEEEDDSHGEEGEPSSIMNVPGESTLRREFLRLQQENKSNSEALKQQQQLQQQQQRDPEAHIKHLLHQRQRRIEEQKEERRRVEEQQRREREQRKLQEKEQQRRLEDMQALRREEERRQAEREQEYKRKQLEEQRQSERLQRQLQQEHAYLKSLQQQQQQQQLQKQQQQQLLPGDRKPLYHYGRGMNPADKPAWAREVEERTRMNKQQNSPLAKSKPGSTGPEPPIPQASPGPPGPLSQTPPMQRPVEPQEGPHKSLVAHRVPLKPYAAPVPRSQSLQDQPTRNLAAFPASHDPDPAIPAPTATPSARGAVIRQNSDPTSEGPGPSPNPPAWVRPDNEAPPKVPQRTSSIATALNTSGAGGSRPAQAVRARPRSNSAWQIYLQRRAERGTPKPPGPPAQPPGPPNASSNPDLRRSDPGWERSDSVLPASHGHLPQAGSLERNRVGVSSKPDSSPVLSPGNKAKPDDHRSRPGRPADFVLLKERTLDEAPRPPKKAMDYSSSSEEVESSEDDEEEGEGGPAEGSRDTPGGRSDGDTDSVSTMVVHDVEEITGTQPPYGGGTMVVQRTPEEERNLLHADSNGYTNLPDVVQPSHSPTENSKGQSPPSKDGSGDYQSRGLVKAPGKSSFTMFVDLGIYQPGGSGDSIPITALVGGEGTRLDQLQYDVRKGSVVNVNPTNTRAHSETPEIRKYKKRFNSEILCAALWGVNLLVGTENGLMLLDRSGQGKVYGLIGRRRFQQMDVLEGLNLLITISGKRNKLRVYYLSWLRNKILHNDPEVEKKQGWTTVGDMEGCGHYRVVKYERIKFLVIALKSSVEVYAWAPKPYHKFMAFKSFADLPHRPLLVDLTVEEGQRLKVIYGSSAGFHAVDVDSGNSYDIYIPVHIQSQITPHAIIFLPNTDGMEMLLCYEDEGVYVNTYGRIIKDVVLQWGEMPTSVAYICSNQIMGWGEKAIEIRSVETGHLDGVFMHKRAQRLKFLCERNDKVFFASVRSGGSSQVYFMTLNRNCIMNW
Test: KINOMEscan competition binding
Settings: compound 10.0 µM
Items are presented alongside their recorded kinase still bound, per cent of control.
# unit: % | format: bare number

Recorded kinase still bound, per cent of control, per entry:
COc1cc(C)c(Sc2cnc(NC(=O)c3ccc(CNC(C)C(C)C)cc3)s2)cc1C(=O)N1CCN(C(C)=O)CC1 (stereo not drawn) : 100
CNC(=O)Nc1ccc(-c2nc(N3CC4CCC(C3)O4)c3cnn(C4CCC5(CC4)OCCO5)c3n2)cc1 : 100

Query: Which kinase still bound, per cent of control is reported for this compound? N#Cc1cc(-c2ccnc(Nc3ccc(-n4cnc(-c5cccnc5)n4)cc3)n2)cc(N2CCOCC2)c1
Result: 31

###

Items are presented alongside their recorded kinase still bound, per cent of control.
Molecular target: MTOR (human) (UniProt P42345)
Assay: KINOMEscan competition binding
Details: compound 10.0 µM
# unit: % | format: bare number

Query: Which kinase still bound, per cent of control is reported for this molecule? COc1cc2ncnc(Nc3cccc(Cl)c3)c2cc1OC
Result: 83

Query: Which kinase still bound, per cent of control is reported for this molecule? CCN(CCO)CCCOc1ccc2c(Nc3cc(CC(=O)Nc4cccc(F)c4)[nH]n3)ncnc2c1
Result: 100

Query: Which kinase still bound, per cent of control is reported for this molecule? CCN1CCN(Cc2ccc(NC(=O)c3ccc(C)c(/C=C/c4cnc5[nH]ccc5c4OC)c3)cc2C(F)(F)F)CC1
Result: 100

Query: Which kinase still bound, per cent of control is reported for this molecule? N#C/C(=C1/Nc2ccccc2S1)c1ccnc(NCCc2cccnc2)n1
Result: 34

Query: Which kinase still bound, per cent of control is reported for this molecule? N#Cc1cc(-c2ccnc(Nc3ccc(-n4cnc(-c5cccnc5)n4)cc3)n2)cc(N2CCOCC2)c1
Result: 100

###

Test system: RET (human), P07949 [V804L]
Sequence (P07949 whole entry V804L, looked up): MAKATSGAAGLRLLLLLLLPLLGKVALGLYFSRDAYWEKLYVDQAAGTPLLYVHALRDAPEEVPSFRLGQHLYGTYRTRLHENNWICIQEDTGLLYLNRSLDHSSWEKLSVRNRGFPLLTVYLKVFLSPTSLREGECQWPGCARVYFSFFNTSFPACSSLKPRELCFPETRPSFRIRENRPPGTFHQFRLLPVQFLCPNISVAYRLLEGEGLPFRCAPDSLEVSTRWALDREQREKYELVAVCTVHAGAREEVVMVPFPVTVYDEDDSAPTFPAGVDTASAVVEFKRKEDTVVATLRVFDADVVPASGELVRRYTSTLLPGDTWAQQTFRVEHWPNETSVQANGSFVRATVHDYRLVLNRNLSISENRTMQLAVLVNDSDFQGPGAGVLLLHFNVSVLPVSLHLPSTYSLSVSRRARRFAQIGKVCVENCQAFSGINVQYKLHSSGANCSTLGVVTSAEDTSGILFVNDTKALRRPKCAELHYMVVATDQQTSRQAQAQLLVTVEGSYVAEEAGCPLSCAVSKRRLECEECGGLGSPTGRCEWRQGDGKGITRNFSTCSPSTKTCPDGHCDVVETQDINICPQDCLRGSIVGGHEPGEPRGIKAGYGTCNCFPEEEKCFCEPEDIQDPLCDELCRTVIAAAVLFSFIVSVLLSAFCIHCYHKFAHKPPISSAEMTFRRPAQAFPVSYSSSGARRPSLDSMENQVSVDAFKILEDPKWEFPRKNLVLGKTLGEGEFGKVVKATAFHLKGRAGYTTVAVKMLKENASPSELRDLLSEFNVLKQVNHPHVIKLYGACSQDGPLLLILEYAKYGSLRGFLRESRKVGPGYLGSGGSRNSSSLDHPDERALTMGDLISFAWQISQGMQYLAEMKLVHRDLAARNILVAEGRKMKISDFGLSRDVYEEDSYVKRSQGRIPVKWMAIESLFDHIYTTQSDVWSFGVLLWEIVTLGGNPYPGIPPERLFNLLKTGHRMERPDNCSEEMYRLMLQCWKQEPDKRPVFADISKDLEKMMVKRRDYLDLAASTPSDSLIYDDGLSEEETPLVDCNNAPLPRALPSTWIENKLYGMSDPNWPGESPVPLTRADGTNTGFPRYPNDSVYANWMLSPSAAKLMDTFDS
Test: KINOMEscan competition binding
Conditions: compound 10.0 µM
measurement_label: kinase still bound, per cent of control (%)
# unit: % | format: bare number

Recorded kinase still bound, per cent of control, per entry:
COc1cc2ncnc(-n3nc(-c4ccccn4)nc3N)c2cc1OC : 54
CC[C@@H]1C(=O)N(C)c2cnc(Nc3ccc(C(=O)NC4CCN(C)CC4)cc3OC)nc2N1C1CCCC1 : 100
COCC(=O)NC/C=C/c1ccc2ncnc(Nc3ccc(Oc4ccc(C)nc4)c(C)c3)c2c1 : 100

Query: Which kinase still bound, per cent of control is reported for this compound? CNC(=O)Nc1ccc(-c2nc(N3CC4CCC(C3)O4)c3cnn(C4CCC5(CC4)OCCO5)c3n2)cc1
Result: 85

Query: Which kinase still bound, per cent of control is reported for this compound? OCCCNc1cc(-c2ccnc(Nc3cccc(Cl)c3)n2)ccn1
Result: 100

Query: Which kinase still bound, per cent of control is reported for this compound? CCN1CCN(Cc2ccc(NC(=O)c3ccc(C)c(/C=C/c4cnc5[nH]ccc5c4OC)c3)cc2C(F)(F)F)CC1
Result: 0.1

Query: Which kinase still bound, per cent of control is reported for this compound? O=C(NC1CC1)c1cccc(-c2ccc3c(NC(=O)C4CC4)n[nH]c3c2)c1
Result: 96

Query: Which kinase still bound, per cent of control is reported for this compound? N#Cc1cc(-c2ccnc(Nc3ccc(-n4cnc(-c5cccnc5)n4)cc3)n2)cc(N2CCOCC2)c1
Result: 100

Query: Which kinase still bound, per cent of control is reported for this compound? C[C@@H](Oc1cc(-n2cnc3ccc(CN4CCN(C)CC4)cc32)sc1C(N)=O)c1ccccc1C(F)(F)F
Result: 100

Query: Which kinase still bound, per cent of control is reported for this compound? O=C1Nc2ccc(I)cc2/C1=C/c1cc(Br)c(O)c(Br)c1
Result: 100

Query: Which kinase still bound, per cent of control is reported for this compound? N#CCNC(=O)c1ccc(-c2ccnc(Nc3ccc(N4CCOCC4)cc3)n2)cc1
Result: 64

###

Items are presented alongside their recorded kinase still bound, per cent of control.
Molecular target: UniProt O75116
Sequence (O75116 whole entry, looked up): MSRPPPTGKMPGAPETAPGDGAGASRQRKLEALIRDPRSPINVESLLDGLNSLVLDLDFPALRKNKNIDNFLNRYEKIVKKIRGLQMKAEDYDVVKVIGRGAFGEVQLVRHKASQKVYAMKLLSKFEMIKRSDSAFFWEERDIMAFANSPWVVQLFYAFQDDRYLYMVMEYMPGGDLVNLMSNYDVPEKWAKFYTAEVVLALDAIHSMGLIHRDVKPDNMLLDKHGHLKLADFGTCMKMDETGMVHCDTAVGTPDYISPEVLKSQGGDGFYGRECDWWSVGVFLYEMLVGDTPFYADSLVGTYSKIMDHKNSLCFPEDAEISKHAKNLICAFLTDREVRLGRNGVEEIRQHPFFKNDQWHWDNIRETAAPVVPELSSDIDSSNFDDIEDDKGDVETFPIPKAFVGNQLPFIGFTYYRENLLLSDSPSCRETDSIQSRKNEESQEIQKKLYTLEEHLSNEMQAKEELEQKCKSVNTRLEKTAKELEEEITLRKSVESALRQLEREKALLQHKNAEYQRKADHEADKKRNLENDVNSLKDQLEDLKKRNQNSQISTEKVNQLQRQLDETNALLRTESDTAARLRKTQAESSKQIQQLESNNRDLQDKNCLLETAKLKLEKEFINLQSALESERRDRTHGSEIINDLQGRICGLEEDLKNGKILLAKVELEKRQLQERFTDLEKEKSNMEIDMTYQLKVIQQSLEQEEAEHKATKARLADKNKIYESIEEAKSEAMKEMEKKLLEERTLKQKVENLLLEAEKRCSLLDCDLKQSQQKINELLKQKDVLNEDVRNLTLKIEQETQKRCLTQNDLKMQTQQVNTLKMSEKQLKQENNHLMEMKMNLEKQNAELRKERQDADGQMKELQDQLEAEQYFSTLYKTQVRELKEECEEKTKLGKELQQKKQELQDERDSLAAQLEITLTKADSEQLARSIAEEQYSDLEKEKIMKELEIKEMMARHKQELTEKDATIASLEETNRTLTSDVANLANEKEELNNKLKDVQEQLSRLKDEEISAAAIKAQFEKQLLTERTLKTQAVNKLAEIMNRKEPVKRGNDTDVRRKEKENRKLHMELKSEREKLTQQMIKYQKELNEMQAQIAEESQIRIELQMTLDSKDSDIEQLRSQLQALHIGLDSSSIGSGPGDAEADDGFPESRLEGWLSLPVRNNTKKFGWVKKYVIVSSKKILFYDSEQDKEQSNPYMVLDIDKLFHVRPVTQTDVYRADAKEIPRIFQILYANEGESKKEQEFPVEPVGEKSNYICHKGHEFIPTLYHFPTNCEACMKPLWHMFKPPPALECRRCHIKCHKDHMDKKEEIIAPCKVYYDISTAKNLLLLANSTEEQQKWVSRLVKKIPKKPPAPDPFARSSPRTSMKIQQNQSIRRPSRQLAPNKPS
Assay: KINOMEscan competition binding
Settings: compound 10.0 µM
Param answer (str): number followed by unit.

Recorded kinase still bound, per cent of control, per entry:
CC(=O)c1c(C)c2cnc(Nc3ccc(N4CCNCC4)cn3)nc2n(C2CCCC2)c1=O : 36%
N#Cc1cc(-c2ccnc(Nc3ccc(-n4cnc(-c5cccnc5)n4)cc3)n2)cc(N2CCOCC2)c1 : 25%
CCc1nc(-c2cccc(C)c2)c(-c2ccnc(NC(=O)c3ccccc3)c2)s1 : 100%
Cc1cn(-c2cc(C(=O)Nc3ccc(C)c(NC(=O)c4ccno4)c3)cc(C(F)(F)F)c2)cn1 : 100%

Query: Which kinase still bound, per cent of control is reported for this molecule? COc1cc(C)c(Sc2cnc(NC(=O)c3ccc(CNC(C)C(C)C)cc3)s2)cc1C(=O)N1CCN(C(C)=O)CC1 (centres undefined)
Result: 100%

Query: Which kinase still bound, per cent of control is reported for this molecule? CCN1CCN(Cc2ccc(NC(=O)c3ccc(C)c(/C=C/c4cnc5[nH]ccc5c4OC)c3)cc2C(F)(F)F)CC1
Result: 34%

Query: Which kinase still bound, per cent of control is reported for this molecule? CC1=C(C(=O)Nc2cc3cn[nH]c3cc2F)C(c2ccc(C(F)(F)F)cc2)CC(=O)N1 (centres undefined)
Result: 0.1%

Query: Which kinase still bound, per cent of control is reported for this molecule? N#C/C(=C1/Nc2ccccc2S1)c1ccnc(NCCc2cccnc2)n1
Result: 23%

Query: Which kinase still bound, per cent of control is reported for this molecule? C=CC(=O)Nc1ccc(C(=O)c2sc(Nc3ccc(N4CCN(C)CC4)cc3OC)nc2N)cc1
Result: 24%

###

Items are presented alongside their recorded kinase still bound, per cent of control.
Target: PRKCI (human) (UniProt P41743)
Sequence (P41743 whole entry, looked up): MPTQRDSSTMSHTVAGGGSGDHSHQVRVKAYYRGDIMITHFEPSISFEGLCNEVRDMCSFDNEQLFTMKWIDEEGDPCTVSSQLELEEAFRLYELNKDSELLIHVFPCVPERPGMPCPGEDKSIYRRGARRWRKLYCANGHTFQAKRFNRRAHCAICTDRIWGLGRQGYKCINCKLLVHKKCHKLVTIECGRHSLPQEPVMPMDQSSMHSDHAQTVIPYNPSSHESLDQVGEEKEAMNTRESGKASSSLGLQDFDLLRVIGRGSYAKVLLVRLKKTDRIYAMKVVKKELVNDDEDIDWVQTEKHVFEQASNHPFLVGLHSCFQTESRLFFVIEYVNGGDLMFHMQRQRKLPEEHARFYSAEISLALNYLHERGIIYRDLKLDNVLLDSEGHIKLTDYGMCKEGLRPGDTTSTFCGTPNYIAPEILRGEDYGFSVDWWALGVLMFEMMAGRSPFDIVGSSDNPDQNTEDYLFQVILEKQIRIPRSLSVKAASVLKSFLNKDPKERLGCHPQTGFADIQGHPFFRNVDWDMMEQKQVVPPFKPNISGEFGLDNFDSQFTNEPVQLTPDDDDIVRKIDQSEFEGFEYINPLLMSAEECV
Assay: KINOMEscan competition binding
Settings: compound 10.0 µM
Param answer (str): number followed by unit.

COc1cc2ncnc(Nc3cccc(Cl)c3)c2cc1OC : 80%
C=CC(=O)Nc1ccc(C(=O)c2sc(Nc3ccc(N4CCN(C)CC4)cc3OC)nc2N)cc1 : 26%
CCCS(=O)(=O)Nc1ccc(F)c(C(=O)c2c[nH]c3ncc(Cl)cc23)c1F : 100%
O=c1[nH]c2ccccc2n1C1CCN(Cc2ccc(-c3nc4cc5[nH]cnc5cc4nc3-c3ccccc3)cc2)CC1 : 79%

Query: Missing value: kinase still bound, per cent of control, PRKCI (human) (UniProt P41743), entry N#C/C(=C1/Nc2ccccc2S1)c1ccnc(NCCc2cccnc2)n1 . Fill in?
Result: 80%

Query: Missing value: kinase still bound, per cent of control, PRKCI (human) (UniProt P41743), entry N#Cc1cc(-c2ccnc(Nc3ccc(-n4cnc(-c5cccnc5)n4)cc3)n2)cc(N2CCOCC2)c1 . Fill in?
Result: 88%

Query: Missing value: kinase still bound, per cent of control, PRKCI (human) (UniProt P41743), entry CCN1CCN(Cc2ccc(NC(=O)c3ccc(C)c(/C=C/c4cnc5[nH]ccc5c4OC)c3)cc2C(F)(F)F)CC1 . Fill in?
Result: 100%

Query: Missing value: kinase still bound, per cent of control, PRKCI (human) (UniProt P41743), entry CCN(CCO)CCCOc1ccc2c(Nc3cc(CC(=O)Nc4cccc(F)c4)[nH]n3)ncnc2c1 . Fill in?
Result: 96%
